The measured values listed here are drawn from ChEMBL document CHEMBL5532737.

Assign half-life to each entry below.
- ASSAY NOTES: Elimination half life in ICR mouse at 1 mg/kg, iv measured upto 24 hrs by LCMS analysis
- Assay type: ADME, organism-based
- SETUP CONDITIONS: in vivo, read-out: beta t1/2 (converted)
Number first, unit second: that is the form wanted.

Some entries whose results are on file:
INSERT INTO results (sample_smiles, measurement_kind, experimental_result) VALUES
  ('COc1cc2nccc(N[C@H](C)c3cccc(C(F)F)c3F)c2cc1O[C@H]1CCN(C(C)=O)C1', 'half-life', '0.45 h'),
  ('COc1cc2nccc(N[C@H](C)c3cccc(C(F)F)c3F)c2cc1N1CCS(=O)(=O)CC1', 'half-life', '1.75 h'),
  ('C[C@@H](Nc1ccnc2cnc(N3CCS(=O)(=O)CC3)cc12)c1cccc(C(F)F)c1F', 'half-life', '1.18 h');

Below is a list of compounds. For each, state its recorded half-life.
1. CC(=O)N1CCN(c2cc3c(N[C@H](C)c4cccc(C(F)F)c4F)ccnc3cn2)CC1
2. CC(=O)N1CCC(c2cc3c(N[C@H](C)c4cccc(C(F)F)c4F)ccnc3cn2)CC1

// result
["1.53 h", "0.88 h"]

* * *

Kindly supply the reported pIC50 values for the records listed here.
- TESTED SYSTEM: SOS1-KRAS (Homo sapiens)
- Sequence (Q07889 whole entry, looked up, stated change not applied): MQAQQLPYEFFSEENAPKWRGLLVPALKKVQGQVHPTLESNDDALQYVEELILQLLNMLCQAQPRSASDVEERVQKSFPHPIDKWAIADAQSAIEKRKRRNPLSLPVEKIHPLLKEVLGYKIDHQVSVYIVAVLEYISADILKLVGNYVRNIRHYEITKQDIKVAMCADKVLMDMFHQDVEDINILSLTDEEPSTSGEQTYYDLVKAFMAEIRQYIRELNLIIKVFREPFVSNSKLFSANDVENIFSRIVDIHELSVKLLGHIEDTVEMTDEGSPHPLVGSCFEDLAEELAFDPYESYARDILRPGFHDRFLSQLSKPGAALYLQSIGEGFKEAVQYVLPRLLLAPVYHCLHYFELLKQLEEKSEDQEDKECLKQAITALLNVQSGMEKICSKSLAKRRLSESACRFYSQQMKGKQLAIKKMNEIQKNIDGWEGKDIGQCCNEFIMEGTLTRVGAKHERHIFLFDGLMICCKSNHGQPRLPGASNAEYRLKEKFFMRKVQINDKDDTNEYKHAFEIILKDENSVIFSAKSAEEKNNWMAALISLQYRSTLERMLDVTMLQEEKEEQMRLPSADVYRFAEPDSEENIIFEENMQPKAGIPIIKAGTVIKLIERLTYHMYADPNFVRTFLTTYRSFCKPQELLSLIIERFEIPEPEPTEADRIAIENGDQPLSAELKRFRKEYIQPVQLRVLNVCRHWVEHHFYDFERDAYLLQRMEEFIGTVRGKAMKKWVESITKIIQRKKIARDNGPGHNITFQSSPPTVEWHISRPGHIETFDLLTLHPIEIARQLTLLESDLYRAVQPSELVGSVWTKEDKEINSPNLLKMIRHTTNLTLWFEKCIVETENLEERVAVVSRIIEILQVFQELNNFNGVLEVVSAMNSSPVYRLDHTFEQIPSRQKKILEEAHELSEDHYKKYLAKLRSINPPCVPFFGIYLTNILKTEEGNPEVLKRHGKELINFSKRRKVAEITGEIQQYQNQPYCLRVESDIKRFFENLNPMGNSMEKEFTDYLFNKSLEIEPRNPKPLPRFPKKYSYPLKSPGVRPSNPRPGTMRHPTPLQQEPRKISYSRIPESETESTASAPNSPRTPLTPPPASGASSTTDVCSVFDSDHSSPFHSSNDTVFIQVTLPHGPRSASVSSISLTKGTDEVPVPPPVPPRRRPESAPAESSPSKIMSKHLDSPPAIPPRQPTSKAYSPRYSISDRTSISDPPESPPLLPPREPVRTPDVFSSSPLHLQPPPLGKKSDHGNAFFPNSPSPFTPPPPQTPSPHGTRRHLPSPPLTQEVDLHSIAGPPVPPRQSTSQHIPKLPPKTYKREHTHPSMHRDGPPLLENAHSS
- ASSAY NOTES: Inhibition of SOS1/KRAS G12C mutant (unknown origin) protein-protein interaction incubated for 2 hrs by HTRF analysis
Give bare numbers, as −log10 of the molar value.

Below, each entry is followed by its recorded pIC50 result.
INSERT INTO assay_data (sample_smiles, experimental_result) VALUES
  ('C[C@@H](Nc1ccnc2cnc(O[C@H]3CCOC3)cc12)c1cccc(C(F)F)c1F', 7.82),
  ('C[C@@H](Nc1ccnc2cnc(N3CCN(C)C(=O)C3)cc12)c1cccc(C(F)F)c1F', 8.16),
  ('COc1cc2nccc(N[C@H](C)c3cccc(C(F)F)c3F)c2cc1C1CCNCC1', 7.85),
  ('COc1cc2nccc(N[C@H](C)c3cccc(C(F)F)c3F)c2cc1O[C@H]1CCOC1', 8.17),
  ('C[C@@H](Nc1ccnc2cnc(N3CCC(O)CC3)cc12)c1cccc(C(F)F)c1F', 8.07),
  ('COc1cc2nccc(N[C@H](C)c3cccc(C(F)F)c3F)c2cc1N1CCS(=O)(=O)CC1', 8.07);

// query Which pIC50 is listed for CC(=O)N1CCC(c2cc3c(N[C@H](C)c4cccc(C(F)F)c4F)ccnc3cn2)CC1 ?
// result 8.01
